Cited source for all entries: paper PMC8145327

- Assay target: S100P (Homo sapiens)
- Construct: 15N-labeled human S100P (95 amino acid residues)
- Method notes: 1H-15N HSQC NMR titration (chemical shift perturbation)
Measure name: Kd

1. N=C(N)c1ccc(OCCCCCOc2ccc(C(=N)N)cc2)cc1 = 48.7 µM
